I'd be grateful if you could share measured EC50 for these entries.
# targetOrTestSystem: human C-terminal DNMT3A (623-908a.a.) (Homo sapiens, UniProt Q9Y6K1)
# Construct: The human C-terminal DNMT3A (623-908a.a.); made in house
# Sequence (Q9Y6K1 627-912 limits assumed): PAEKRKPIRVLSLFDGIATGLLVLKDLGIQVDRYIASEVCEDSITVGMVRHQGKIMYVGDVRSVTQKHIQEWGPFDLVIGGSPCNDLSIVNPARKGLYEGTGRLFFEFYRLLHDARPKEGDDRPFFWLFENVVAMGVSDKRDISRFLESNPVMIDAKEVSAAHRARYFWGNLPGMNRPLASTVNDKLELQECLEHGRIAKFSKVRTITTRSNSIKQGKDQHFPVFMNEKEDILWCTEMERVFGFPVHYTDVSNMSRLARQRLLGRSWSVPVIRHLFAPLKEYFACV
# protocolDetails: hDNMT3A assay (restriction-based fluorescence assay)
# Assay type: biochemical
# testContext: interval line below the EC50 of the same compound; read-out: EC50 (μM), range given
# Description: hDNMT3A enzyme inhibition was adapted from the restriction-based fluorescence assay protocol as described in the literature (Ceccaldi et al. Chem Bio Chem 2011, 12, 1337-1345). […] Specific fluorescent signals were detected with the methylation-sensitive restriction enzyme HpyCH4IV (NEB) as described and measured on a Perkin Elmer Envision detector. […]

[in] Give its EC50 value. Item: "CCN(CC)CCCNC(=O)N1CCc2cc3c4cc2[C@@H]1Cc1ccc(OC)c(c1)Oc1ccc(cc1)C[C@H]1c2c(cc(OC)c(c2O4)O3)CCN1C(=O)NCCCN(CC)CC"
[out] 1 to 3.72 µM

[in] Now give it for "CCN(CC)CCCNC(=S)N1CCc2cc3c4cc2[C@@H]1Cc1ccc(OC)c(c1)Oc1ccc(cc1)C[C@H]1c2c(cc(OC)c(c2O4)O3)CCN1C" too.
[out] 0.47 to 0.86 µM

[in] Now give it for "CNC(=O)N1CCc2cc(OC)c3c4c2[C@@H]1Cc1ccc(cc1)Oc1cc(ccc1OC)C[C@H]1c2cc(c(cc2CCN1C)O3)O4" too.
[out] 3.04 to 5.17 µM
